Origin of measurements: patent US7053069B2

Test: Clinical pharmacokinetics, 15-minute infusion once every three weeks
Format: in vivo, human
Settings: plasma, intravenous, 30 mg/m2; human, 30 mg/m^2, cycle 1, mean, n=7
Method: Compound A was administered to human patients once every three (3) weeks as a 15-minute infusion, using an accelerated followed by modified Fibonacci dose escalation design. Twenty-two (22) patients were treated at does levels of 0.6, 1.2, 2.5, 5, 10, 20, 30 and 40 mg/m^2.
VALUE_TYPE: Cmax (ng/mL)
Give the value in ng/mL but do not write ng/mL after it.

**Query** GET /values?readout=Cmax&item= C/C(=C\c1csc(CN)n1)[C@@H]1C[C@@H]2O[C@]2(C)CCC[C@H](C)[C@H](O)[C@@H](C)C(=O)C(C)(C)[C@@H](O)CC(=O)O1
**Result** 3430
